- Test system: turtle Thyroid Hormone Receptor, alpha (TRa), gene 101949057
- procedure summary: ATG_trTRa_XSP2: Attagene TRANS-FACTORIAL Multi-Species (XSP1) HepG2 Assay for turtle Thyroid Hormone Receptor, alpha (TRa) (AID 2283834);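 also: hits raise reporter mRNA over the DMSO baseline so AC50 marks activators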
Records with an inconclusive call do not appear. Activity calls are given as the source filed them. The calls were made as follows: active = hit-call score of the fitted dose curve at least 0.9, where 1 is the maximum; inconclusive = response in the unintended direction; inactive = score below 0.9.
measure name: outcome

>>> experimental_result("CC1(C)C(C=C(Cl)Cl)C1C(=O)OCc1cccc(Oc2ccccc2)c1 (centres undefined)")
"inactive"
>>> experimental_result("Oc1ccc(C(c2ccc(O)cc2)C(Cl)(Cl)Cl)cc1")
"inactive"
>>> experimental_result("C#C[C@]1(O)CC[C@H]2[C@@H]3CCC4=CC(=O)CC[C@@H]4[C@H]3CC[C@@]21CC")
"inactive"
>>> experimental_result("CC(C)(c1ccc(O)cc1)c1ccc(O)cc1")
"inactive"

---

- procedure summary: CCTE_Shafer_MEA_dev_spike_duration_mean: CCTE's Neural Network Formation Assay for Mean Spike Duration, Shafer Lab (AID 2284051);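 also: mean network spike duration pooled as area under curve over DIV 5 to 12 recordings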
The source made the active and inactive calls. Rule for the calls: active = hit-call score of the fitted dose curve at least 0.9, where 1 is the maximum; inactive = score below 0.9.
Lab note: assign the record to one of true (1) = active, false (0) = inactive

Below are worked cases with known answers.
>>> class("CSC(=O)c1cccc2nnsc12")
"false (0)"
>>> class("CCN(CC)C(=O)c1cccc(C)c1")
"false (0)"
>>> class("C#CCOC(=O)[C@@H](C)Oc1ccc(Oc2ncc(Cl)cc2F)cc1")
"false (0)"
>>> class("CCCCC(CC)CN1C(=O)C2C3C=CC(C3)C2C1=O (stereo not given)")
"false (0)"

Would you kindly look at the next entry?
Prompt: Hi, sorry to bother you, what did the test record for Cc1nn(C)c(Oc2ccccc2)c1C=NOCc1ccc(C(=O)OC(C)(C)C)cc1 ?
Completion: true (1)

---

- assay system: human CYP2C9, CYP2C9 (gene 1559) (UniProt P11712)
- Sequence (P11712 whole entry, looked up): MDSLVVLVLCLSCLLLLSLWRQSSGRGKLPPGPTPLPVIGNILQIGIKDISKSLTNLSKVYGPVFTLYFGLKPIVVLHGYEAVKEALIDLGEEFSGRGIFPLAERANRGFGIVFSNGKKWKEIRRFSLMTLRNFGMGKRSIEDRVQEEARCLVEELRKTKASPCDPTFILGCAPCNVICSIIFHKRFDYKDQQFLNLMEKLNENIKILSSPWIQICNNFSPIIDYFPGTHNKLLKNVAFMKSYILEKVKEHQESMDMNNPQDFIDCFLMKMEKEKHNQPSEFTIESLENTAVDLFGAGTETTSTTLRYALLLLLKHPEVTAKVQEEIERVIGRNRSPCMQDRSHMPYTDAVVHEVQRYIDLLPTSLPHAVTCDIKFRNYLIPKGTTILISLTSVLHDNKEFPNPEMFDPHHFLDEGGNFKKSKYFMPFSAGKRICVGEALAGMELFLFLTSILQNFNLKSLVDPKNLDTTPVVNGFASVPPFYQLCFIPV
- procedure summary: NVS_ADME_hCYP2C9: NovaScreen (NVS) CYP450-related Enzyme Activity (ADME) Assay for human CYP2C9 (AID 2283108)
Records with an inconclusive call do not appear. The source made the active and inactive calls. The calls were made as follows: active = hit-call score of the fitted dose curve at least 0.9, where 1 is the maximum; inconclusive = response in the unintended direction; inactive = score below 0.9.
Lab note: assign the record to one of class 1 for active, class 0 for inactive

Below are worked cases with known answers.
>>> class("CCCCCCC(C)OC(=O)COc1nc(F)c(Cl)c(N)c1Cl (configuration not stated)")
"class 0"
>>> class("CC(C)(c1ccc(O)cc1)c1ccc(O)cc1")
"class 1"

Prompt: Hi, sorry to bother you, what did the test record for CCOC(=O)NCCOc1ccc(Oc2ccccc2)cc1 ?
Completion: class 1

Prompt: Hi, sorry to bother you, what did the test record for CCCCOCCOCCOCc1cc2c(cc1CCC)OCO2 ?
Completion: class 1

---

- procedure summary: IUF_NPC2a_radial_glia_migration_72hr: Leibniz Research Institute for Environmental Medicine (IUF) 72-hour Neural Progenitor Cell Migration Assay for Radial Glia Migration (NPC2a) (AID 2284299)
The source made the active and inactive calls. Rule for the calls: active = hit-call score of the fitted dose curve at least 0.9, where 1 is the maximum; inactive = score below 0.9.
Lab note: assign the record to one of active, inactive

Below are worked cases with known answers.
>>> class("CCCN(CCC)C(=O)SCC")
"inactive"
>>> class("S=C([S-])NCCNC(=S)[S-].[Mn+2]")
"inactive"
>>> class("Cc1nn(C)c(Oc2ccccc2)c1C=NOCc1ccc(C(=O)OC(C)(C)C)cc1")
"active"
>>> class("CCN(CC)C(=O)c1cccc(C)c1")
"inactive"

Would you kindly look at the next entry?
Prompt: Hi, sorry to bother you, what did the test record for O=C(O)c1ccccc1 ?
Completion: inactive
